Origin of the recorded values: PubChem BioAssay (NCI)

This listing pairs compounds with measured growth inhibition.
# assay_comment: NCI Yeast Anticancer Drug Screen. Data for the sgs1 mgt1 strain (AID 161);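 further: 0% = growth of cultures given vehicle only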
# protocol_conditions: S. cerevisiae sgs1 mgt1 strain, at 50.0 µM (retest, dose inferred, filed as 5.0), stronger effect = higher value
The panel holds about 79,000 compounds, 15% with a hit somewhere; the sample as a whole holds those more often. Active and inactive are the calls of the source. No stated cut-off is given here; in the data, active means growth inhibition above about 70%; inactive means the rest.
reported_metric: growth inhibition

[
  {
    "compound": "Nc1c(-c2ccc(Cl)cc2)[n+]([O-])c2ccccc2[n+]1[O-]",
    "reported_metric": "growth inhibition",
    "result": "-10% (inactive)"
  },
  {
    "compound": "COc1ccc(OP2(Oc3ccc(OC)cc3)=NP(Oc3ccc(OC)cc3)(Oc3ccc(OC)cc3)=NP(Oc3ccc(OC)cc3)(Oc3ccc(OC)cc3)=NP(Oc3ccc(OC)cc3)(Oc3ccc(OC)cc3)=N2)cc1",
    "reported_metric": "growth inhibition",
    "result": "28% (inactive)"
  },
  {
    "compound": "CCN(CC)CCCCNc1ccc(Cl)cc1",
    "reported_metric": "growth inhibition",
    "result": "18% (inactive)"
  },
  {
    "compound": "CC(C)c1ccc(O)c(O)c(=O)c1",
    "reported_metric": "growth inhibition",
    "result": "44% (inactive)"
  },
  {
    "compound": "CCSc1nnc(CSc2nc(-c3ccccc3)c(-c3ccccc3)[nH]2)n1-c1ccccc1",
    "reported_metric": "growth inhibition",
    "result": "32% (inactive)"
  },
  {
    "compound": "O=C(O)C1(Cc2ccc3c(c2)CCC3)Cc2cc3c(cc2C1)CCC3",
    "reported_metric": "growth inhibition",
    "result": "-1% (inactive)"
  },
  {
    "compound": "COC(=O)c1c[nH]c2ccc(Br)cc12",
    "reported_metric": "growth inhibition",
    "result": "19% (inactive)"
  },
  {
    "compound": "CCCCN(CCC(=O)O)c1ccc(/C=C\\c2ccnc3ccccc23)cc1",
    "reported_metric": "growth inhibition",
    "result": "90% (active)"
  },
  {
    "compound": "CC[n+]1cnc(N)c2c(-c3ccc(Cl)cc3)cn(-c3ccc(C)cc3)c21",
    "reported_metric": "growth inhibition",
    "result": "99% (active)"
  },
  {
    "compound": "COc1cccc2c1C(=O)c1c(O)c3c(c(O)c1C2=O)C[C@@](O)(/C(C)=N\\NC=O)C[C@@H]3OC1CC(N)C(O)C(C)O1 (stereo not given in full)",
    "reported_metric": "growth inhibition",
    "result": "38% (inactive)"
  },
  {
    "compound": "Cc1ccc(C2=C(C#N)C(c3ccccc3)C(C#N)=C(N)O2)cc1 (stereo not given)",
    "reported_metric": "growth inhibition",
    "result": "98% (active)"
  },
  {
    "compound": "CSC(=S)N/N=C(/C)CC(C)C",
    "reported_metric": "growth inhibition",
    "result": "92% (active)"
  },
  {
    "compound": "CCCCCCCC[N+](C)(C)Cc1ccc(C[N+](C)(C)CCCCCCCC)cc1",
    "reported_metric": "growth inhibition",
    "result": "34% (inactive)"
  },
  {
    "compound": "CCCCCCCN=C(N)c1ccc(C(=O)OC2CCCCC2)cc1",
    "reported_metric": "growth inhibition",
    "result": "98% (active)"
  },
  {
    "compound": "COC(=O)c1cc(/C=C/c2ccccc2)on1",
    "reported_metric": "growth inhibition",
    "result": "8% (inactive)"
  }
]

====

# assay_comment: NCI Yeast Anticancer Drug Screen. Data for the mec2-1 strain (AID 157)
# protocol_conditions: S. cerevisiae mec2-1 strain, at 5.0 µM (retest, dose inferred, filed as 0.5), stronger effect = higher value
Compounds without any hit were thinned out: in the full panel of roughly 79,000, 15% have a hit. Active and inactive are the calls of the source. No stated cut-off is given here; in the data, active means growth inhibition above about 70%; inactive means the rest.

[
  {
    "molecule": "Cc1c[n+](CC(=O)c2ccc(I)cc2)c(C)s1",
    "growth inhibition": "-1% (inactive)"
  },
  {
    "molecule": "CCN(CC)CCNc1c2ccccc2nc2cccc([N+](=O)[O-])c12",
    "growth inhibition": "95% (active)"
  },
  {
    "molecule": "CN=S(=O)(OCCCCOS(=O)(=NC)c1ccccc1)c1ccccc1 (stereo not drawn)",
    "growth inhibition": "9% (inactive)"
  },
  {
    "molecule": "CCCCN(CCCC)CC(O)c1cc(-c2ccc(Cl)cc2)nc2c(Cl)cccc12 (stereo not drawn)",
    "growth inhibition": "-2% (inactive)"
  },
  {
    "molecule": "O=C(O)CC(NC(=O)CP(=O)(O)O)C(=O)O.[NH-]C1CCCCC1[NH-].[Pt+2] (stereo not drawn)",
    "growth inhibition": "2% (inactive)"
  },
  {
    "molecule": "COC(=O)c1c(C)cccc1C1CN=NC12Cc1ccc(C)c(C)c1C2=O (stereo not drawn)",
    "growth inhibition": "0% (inactive)"
  },
  {
    "molecule": "Cc1ccc(O)c(C(c2cc(C)ccc2O)c2cc([N+](=O)[O-])ccc2O)c1",
    "growth inhibition": "7% (inactive)"
  },
  {
    "molecule": "CCOC(=O)C1(C#N)C(=O)CSC1=Nc1ccccc1Cl (stereo not drawn)",
    "growth inhibition": "-16% (inactive)"
  },
  {
    "molecule": "O=C(c1ccccc1)C1Cc2ccccc2C1=O (stereo not drawn)",
    "growth inhibition": "-16% (inactive)"
  },
  {
    "molecule": "Nc1ccc(CSc2ccc(Cl)cc2)cc1Cl",
    "growth inhibition": "-5% (inactive)"
  },
  {
    "molecule": "CC1(C)OC2C(COC(c3ccccc3)(c3ccccc3)c3ccccc3)OC(n3ccc(=O)[nH]c3=O)C2O1 (stereo not drawn)",
    "growth inhibition": "35% (inactive)"
  },
  {
    "molecule": "C[C@H](CCC(=O)O)[C@H]1CC[C@H]2[C@@H]3CC[C@@H]4C[C@H](O)CC[C@]4(C)[C@H]3C[C@H](O)[C@]12C",
    "growth inhibition": "1% (inactive)"
  },
  {
    "molecule": "CN(NC(=O)CC(=O)NN(C)C(=S)c1ccccc1)C(=S)c1ccccc1",
    "growth inhibition": "81% (active)"
  },
  {
    "molecule": "CC(C)N(CCOc1ccc(/C=C/c2ccccc2)cc1)C(C)C",
    "growth inhibition": "4% (inactive)"
  },
  {
    "molecule": "CCN(CC)CCCNc1cc(C)nc2c1ccc1c2ccc2c(NCCCN(CC)CC)cc(C)nc21",
    "growth inhibition": "-2% (inactive)"
  },
  {
    "molecule": "Cc1cc(O)c(/C=N/C(=S)Nc2ccc(S(N)(=O)=O)cc2)c(=O)o1",
    "growth inhibition": "13% (inactive)"
  },
  {
    "molecule": "Cc1c(O)c(Br)c(C)c(O)c1Br (tested in a mixture with another compound)",
    "growth inhibition": "21% (inactive)"
  },
  {
    "molecule": "CC(C)(C)c1ccc(Sc2ncnc3ccccc23)cc1",
    "growth inhibition": "21% (inactive)"
  },
  {
    "molecule": "NC(=O)c1ncn(C2OC(CO)C(O)C2O)c1O (stereo not drawn)",
    "growth inhibition": "-9% (inactive)"
  },
  {
    "molecule": "COC(=O)c1ccc(NN)cc1",
    "growth inhibition": "4% (inactive)"
  },
  {
    "molecule": "O=[N+]([O-])c1ccc(N2N=NC(CN3CCOCC3)C2N2CCOCC2)cc1 (stereo not drawn)",
    "growth inhibition": "0% (inactive)"
  },
  {
    "molecule": "C(=P(c1ccccc1)(c1ccccc1)c1ccccc1)[P+](c1ccccc1)(c1ccccc1)c1ccccc1.[Br][Cu][Br]",
    "growth inhibition": "99% (active)"
  },
  {
    "molecule": "CN=C(N)NN=C(c1ccc(Cl)cc1)c1ccc(Cl)cc1",
    "growth inhibition": "30% (inactive)"
  }
]

====

# assay_comment: NCI Yeast Anticancer Drug Screen. Data for the sgs1 mgt1 strain (AID 161);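 further: 0% = growth of cultures given vehicle only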
# protocol_conditions: S. cerevisiae sgs1 mgt1 strain, at 5.0 µM (retest, dose inferred, filed as 0.5), stronger effect = higher value
The panel holds about 79,000 compounds, 15% with a hit somewhere; the sample as a whole holds those more often.
This listing pairs molecules with measured growth inhibition.

[
  {
    "molecule": "Nc1cccc2c(O)cccc12",
    "growth inhibition, %": -1
  },
  {
    "molecule": "O=C1C(CCl)=CS(=O)(=O)c2ccccc21",
    "growth inhibition, %": 16
  },
  {
    "molecule": "CCCCN(CCCC)CCC(=O)c1ccc2c(ccc3ccccc32)c1",
    "growth inhibition, %": 20
  },
  {
    "molecule": "COC(=O)[C@]1(C)CCCC2(C)C3=C(CCC21)CC1(CC3)SCCS1 (some centres undefined)",
    "growth inhibition, %": 29
  },
  {
    "molecule": "O=C(CCn1[nH]c(=O)c(Cl)c(Cl)c1=O)NNc1ccc([N+](=O)[O-])cc1[N+](=O)[O-]",
    "growth inhibition, %": 1
  },
  {
    "molecule": "N#CCCN(C(=S)Nc1cccc(C(F)(F)F)c1)C1CCCCC1",
    "growth inhibition, %": -1
  },
  {
    "molecule": "CS(=O)(=O)c1cc(=O)c2ccccc2s1",
    "growth inhibition, %": 21
  },
  {
    "molecule": "CCC(c1ccc(O)cc1)C(O)(CC)c1ccc(O)cc1 (centres undefined)",
    "growth inhibition, %": -3
  },
  {
    "molecule": "O=[N+]([O-])c1ccc(SC(=S)N2CCCCC2)c([N+](=O)[O-])c1",
    "growth inhibition, %": 15
  },
  {
    "molecule": "Clc1ccc(C2=Nc3ccccc3SC(c3ccc(Cl)c(Cl)c3)C2)c(Cl)c1 (centres undefined)",
    "growth inhibition, %": 1
  },
  {
    "molecule": "CS(=O)(=O)OCCN(CCOS(C)(=O)=O)c1ccc(C=Nc2ccc3ccccc3c2)c(Cl)c1",
    "growth inhibition, %": 3
  },
  {
    "molecule": "CC1/C=C/C=C/CC/C=C/C=C/C=C/C=C/C(OC2OC(C)C(O)C(N)C2O)CC2OC(CC(O)C(O)CCC(O)CC(O)CC(O)CC(=O)OC(C)C(C)C1O)CC(O)C2C(=O)O (centres undefined)",
    "growth inhibition, %": 56
  },
  {
    "molecule": "C/C(CC(O)(C(F)(F)F)C(F)(F)F)=N/Nc1ccc([N+](=O)[O-])cc1[N+](=O)[O-]",
    "growth inhibition, %": -2
  },
  {
    "molecule": "CCC1CCCN1CCOC(=O)C(c1ccccc1)C1C=CCC1 (centres undefined)",
    "growth inhibition, %": 40
  },
  {
    "molecule": "CCNC1(C2c3ccccc3-c3ccccc32)c2ccccc2-c2ccccc21",
    "growth inhibition, %": 4
  },
  {
    "molecule": "Cc1ccccc1C(=O)C(C)c1ccccc1 (centres undefined)",
    "growth inhibition, %": -2
  },
  {
    "molecule": "CCCCc1ccc2nccc(N/N=C/c3ccc(OC)c4ccccc34)c2c1",
    "growth inhibition, %": 2
  },
  {
    "molecule": "Nc1ncnc2c1ncn2CC(O)CN(CCO)CCO (centres undefined) (tested in a mixture with another compound)",
    "growth inhibition, %": -11
  },
  {
    "molecule": "Cc1ccc(C(CN)(CCBr)c2ccc(C)cc2)cc1",
    "growth inhibition, %": 59
  },
  {
    "molecule": "COC1CCC2(C)C(=CCC3C4CC(OC(C)=O)CC4(C)CCC32)C1 (centres undefined)",
    "growth inhibition, %": 2
  },
  {
    "molecule": "CC(=O)Nc1ccc(C#N)c2ccccc12",
    "growth inhibition, %": 0
  },
  {
    "molecule": "COC(=O)C1=C(C)NC(C)=C(C(=O)OC)C1c1ccc(NCc2ccccc2)c([N+](=O)[O-])c1",
    "growth inhibition, %": -1
  },
  {
    "molecule": "CCCCCCCCCCCCCC(=O)CC(=O)c1c(O)cccc1O",
    "growth inhibition, %": 7
  },
  {
    "molecule": "CCOc1ccc(N=Nc2ccccc2)cc1",
    "growth inhibition, %": -8
  },
  {
    "molecule": "CN(C)C(=O)/C=C/c1c[nH]c(=O)[nH]c1=O",
    "growth inhibition, %": -63
  },
  {
    "molecule": "O=C1C=CC(=O)N1CCCCCCN1C(=O)C=CC1=O",
    "growth inhibition, %": 32
  },
  {
    "molecule": "CC(=O)N/N=C/c1ccc([N+](=O)[O-])o1",
    "growth inhibition, %": 12
  },
  {
    "molecule": "CCCCCCOC(=O)CCC(=O)OCCCCCC",
    "growth inhibition, %": -1
  },
  {
    "molecule": "NC1=C(O)C(=O)C(c2c3ccccc3cc3ccccc23)O1 (centres undefined)",
    "growth inhibition, %": 8
  },
  {
    "molecule": "CC(=O)Nc1c(Cl)ccc2c1Cc1cc([N+](=O)[O-])ccc1-2",
    "growth inhibition, %": 6
  },
  {
    "molecule": "CCCN1CN(C(C(=O)N[C@@H]2C(=O)N3C(C(=O)O)=C(C)CSC23)c2ccccc2)CSC1=S (some centres undefined)",
    "growth inhibition, %": -21
  },
  {
    "molecule": "C/C(=N\\NC(=S)Nc1ccc(C(=O)O)cc1C)c1ccc2ccccc2n1",
    "growth inhibition, %": -3
  },
  {
    "molecule": "Oc1cc2c(cc1C(c1ccc(F)cc1)N1CCCCC1)OCO2 (centres undefined)",
    "growth inhibition, %": 6
  },
  {
    "molecule": "CCCCC/C(=C/C=C/c1ccc(Cl)cc1)CN(C)C",
    "growth inhibition, %": 49
  },
  {
    "molecule": "Cc1occc1C(=S)Nc1ccc(Cl)c(/C=N/OC(C)C)c1",
    "growth inhibition, %": 13
  },
  {
    "molecule": "Cc1ccc(-n2cc(-c3ccc(Cl)cc3)c3c(NN)ncnc32)cc1",
    "growth inhibition, %": -8
  },
  {
    "molecule": "CN(c1ccccc1)c1c2c(oc(=O)c1Cl)-c1ccccc1SC2",
    "growth inhibition, %": 13
  },
  {
    "molecule": "O=C1C=CC(=Nc2cccc3c2-c2ccccc2C3)O1",
    "growth inhibition, %": 99
  },
  {
    "molecule": "CC[N-]c1nncs1.CC[N-]c1nncs1.CC[N-]c1nncs1.CC[N-]c1nncs1.[Cl][Rh][Cl]",
    "growth inhibition, %": 11
  }
]
